molecular target: Rap guanine nucleotide exchange factor 4 (Homo sapiens) (UniProt Q8WZA2); assay: Confirmatory qHTS for antagonist of cAMP-regulated guanine nucleotide exchange factor 4 (EPAC2) (AID 1645885); details: EPAC2 Rap1B-BODIPY-GDP exchange fluorescence, biochemical; series mostly up to 12.7 µM; further: nearly all actives have a fitted effect of over 25% in size
Sequence (Q8WZA2 whole entry, looked up): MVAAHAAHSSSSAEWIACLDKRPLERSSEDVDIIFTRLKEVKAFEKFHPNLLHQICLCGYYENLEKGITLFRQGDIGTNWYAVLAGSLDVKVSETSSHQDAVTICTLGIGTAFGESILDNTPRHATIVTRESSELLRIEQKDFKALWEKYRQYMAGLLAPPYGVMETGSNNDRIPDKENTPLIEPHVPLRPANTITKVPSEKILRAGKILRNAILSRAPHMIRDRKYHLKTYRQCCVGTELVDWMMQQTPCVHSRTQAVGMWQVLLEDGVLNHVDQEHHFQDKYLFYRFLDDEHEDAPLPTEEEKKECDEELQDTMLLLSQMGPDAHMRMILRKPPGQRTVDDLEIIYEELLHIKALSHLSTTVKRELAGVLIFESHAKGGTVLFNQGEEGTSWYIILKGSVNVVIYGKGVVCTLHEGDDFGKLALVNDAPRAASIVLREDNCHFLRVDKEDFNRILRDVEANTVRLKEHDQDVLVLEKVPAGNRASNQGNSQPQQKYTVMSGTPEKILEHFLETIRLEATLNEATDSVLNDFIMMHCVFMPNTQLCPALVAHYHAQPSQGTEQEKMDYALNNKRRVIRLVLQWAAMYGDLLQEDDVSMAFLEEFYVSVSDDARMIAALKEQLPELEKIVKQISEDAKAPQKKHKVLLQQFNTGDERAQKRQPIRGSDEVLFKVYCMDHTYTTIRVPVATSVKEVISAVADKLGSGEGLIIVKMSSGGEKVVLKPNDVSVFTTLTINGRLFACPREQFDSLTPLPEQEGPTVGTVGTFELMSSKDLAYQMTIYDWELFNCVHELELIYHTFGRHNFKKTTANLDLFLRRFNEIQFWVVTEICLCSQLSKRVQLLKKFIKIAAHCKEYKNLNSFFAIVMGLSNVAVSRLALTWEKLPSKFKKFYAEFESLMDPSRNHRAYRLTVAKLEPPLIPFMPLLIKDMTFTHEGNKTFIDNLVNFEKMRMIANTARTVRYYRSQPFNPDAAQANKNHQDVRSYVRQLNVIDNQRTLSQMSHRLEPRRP
Results filed as inconclusive are left out. Activity calls are given as the source filed them. The call rests on the fitted dose curve; in most records, active means well fitted inhibition curve with a large enough effect; inconclusive means small, poorly fitted or top-dose-only effect; inactive means no such curve, though single readings can be large or run the other way.
Respond using exactly one of the listed classes: active, inactive

Past entries and their recorded results:
Compound | Label Class
CCOC(=O)C1=CCN(S(=O)(=O)c2ccc(C)cc2)C1c1cccs1 (centres undefined) | inactive
Cc1cccc(Nc2c([N+](=O)[O-])c(=O)oc3ccccc23)c1 | inactive
O=C(O)CCn1cc(/C=C2\NC(=S)N(c3ccccc3)C2=O)c(-c2ccc(Br)cc2)n1 | inactive
CC1(C(=O)NS(=O)(=O)c2ccc(C#N)cc2)CCN1C(=O)C1(c2ccccc2)CCCC1 (centres undefined) | active
CC(C)CC(C(=O)NC1CCCCC1)N(Cc1ccccc1)C(=O)c1snc(C(N)=O)c1N (centres undefined) | inactive
COc1ncc(-c2c(-c3ccccc3OC)sc3ccccc23)cn1 | inactive
Cc1ccccc1C(=O)NCC(=O)N1CCN(c2ccccn2)CC1 | inactive
Nc1ncnc2c1nc(Br)n2[C@@H]1O[C@@H]2COP(=O)(O)O[C@H]2[C@H]1O | inactive
COc1ccccc1/C=C1\SC(=S)N(NS(=O)(=O)c2ccc(C)cc2)C1=O | inactive
COC(=O)CC1(C(=O)OC)Oc2ccc(Br)cc2C(=O)N1c1cc(Cl)cc(Cl)c1 (centres undefined) | active

Input line: // return assay outcome for Cc1onc(-c2c(F)cccc2Cl)c1C(=O)OCC(=O)N(C)c1ccccc1
Output line: inactive

Input line: Which outcome was entered for the compound O=C(O)c1cc(-c2ccc(-c3c(-c4ccc5c(c4)OCO5)noc3-c3ccsc3)cc2)nc2ccccc12 in this test?
Output line: active

Input line: Any idea what this test logged for Cc1ccc(S(=O)(=O)N2CCCCC2)cc1C(=O)NCCC1=CCCCC1 ?
Output line: inactive

====

molecular target: Rap guanine nucleotide exchange factor 3 (Homo sapiens) (UniProt O95398); test: Confirmatory qHTS for antagonist of cAMP-regulated guanine nucleotide exchange factor 3 (EPAC1) (AID 1645880); details: EPAC1 Rap1B-BODIPY-GDP exchange, fluorescence; series mostly up to 115 µM; further: nearly all actives have a fitted effect of over 55% in size
Sequence (O95398 whole entry, looked up): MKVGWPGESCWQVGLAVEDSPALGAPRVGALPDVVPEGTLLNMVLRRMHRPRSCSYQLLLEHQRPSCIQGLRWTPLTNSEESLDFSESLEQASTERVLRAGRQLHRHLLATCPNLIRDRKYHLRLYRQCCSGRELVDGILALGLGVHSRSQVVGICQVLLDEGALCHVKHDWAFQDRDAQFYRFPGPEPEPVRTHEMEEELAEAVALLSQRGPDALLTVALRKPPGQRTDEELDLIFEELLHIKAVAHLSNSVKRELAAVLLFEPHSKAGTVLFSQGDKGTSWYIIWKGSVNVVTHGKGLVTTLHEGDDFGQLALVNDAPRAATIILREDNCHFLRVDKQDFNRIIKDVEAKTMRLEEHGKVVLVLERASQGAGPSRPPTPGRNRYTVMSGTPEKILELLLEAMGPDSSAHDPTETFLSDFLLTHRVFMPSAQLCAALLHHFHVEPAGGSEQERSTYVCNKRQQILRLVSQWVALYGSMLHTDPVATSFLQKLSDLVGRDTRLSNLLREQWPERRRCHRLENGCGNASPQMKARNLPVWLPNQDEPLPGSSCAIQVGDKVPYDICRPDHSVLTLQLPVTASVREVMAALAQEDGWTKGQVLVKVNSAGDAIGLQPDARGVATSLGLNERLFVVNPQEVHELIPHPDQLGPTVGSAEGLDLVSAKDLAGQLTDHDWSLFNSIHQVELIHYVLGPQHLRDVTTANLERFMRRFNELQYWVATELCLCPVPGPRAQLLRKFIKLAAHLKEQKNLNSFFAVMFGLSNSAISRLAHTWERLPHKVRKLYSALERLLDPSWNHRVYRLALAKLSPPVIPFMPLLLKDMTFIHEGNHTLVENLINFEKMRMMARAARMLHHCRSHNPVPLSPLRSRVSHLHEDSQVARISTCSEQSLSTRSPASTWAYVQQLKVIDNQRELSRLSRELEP
Records with an inconclusive call do not appear. Active and inactive are the calls of the source. Calls follow the shape of the dose curve; as a rule, active = well fitted inhibition curve with a large enough effect; inconclusive = small, poorly fitted or top-dose-only effect; inactive = no such curve, though single readings can be large or run the other way.
// allowed return values: active, inactive

Check out these entries, answers already filled in.
Compound | Label Class
CCOC(=O)C(C)n1cnc2c(nnn2-c2cccc(Cl)c2)c1=O (stereo not given) | inactive
CCOC(=O)C1CCCN(C(=O)C(C)(C)Oc2ccc(Cl)cc2)C1 (stereo not given) | inactive
COC(=O)c1ccccc1NC(=O)CN1C(=O)COc2ccccc21 | inactive
CC1(C)CC[C@]2(C(=O)n3ccnc3)CC[C@]3(C)[C@H](C(=O)C=C4[C@@]5(C)C=C(C#N)C(=O)C(C)(C)[C@@H]5CC[C@]43C)[C@@H]2C1 | active

Input line: Hi, do you know how Cc1[nH]c2ccccc2c1/C=C/c1ccnc2ccccc12 came out in this test?
Output line: inactive

====

system: CP238; assay: qHTS profiling for inhibitors of Plasmodium falciparum proliferation (AID 504749); further: nearly all actives have a fitted effect of over 60% in size; conditions: P. falciparum in erythrocytes, SYBR Green DNA, 72 h; series mostly up to 12.8 µM
Records with an inconclusive call do not appear. Calls of active or inactive are those of the source. The call rests on the fitted dose curve; in most records, active means well fitted inhibition curve with a large enough effect; inconclusive means small, poorly fitted or top-dose-only effect; inactive means flat fitted curve, though single readings scatter.
Write down one outcome, taken from class 1 = active, class 0 = inactive

Molecule | Target Or Test System | Label Class
CC(=O)O[C@@]1(C(C)=O)CCC2C3CC(C)C4=CC(=O)CC[C@@]4(C)C3CC[C@]21C (stereo partly specified) | CP238 | class 0
CC(=O)OCC(=O)[C@@]1(O)[C@H](C)C[C@@H]2[C@H]3CCC4=CC(=O)C=C[C@]4(C)[C@]3(F)[C@@H](O)C[C@@]21C | CP238 | class 0
COc1cc(C2c3cc4c(cc3C(O[C@@H]3OC5COC(c6cccs6)OC5C(O)C3O)C3COC(=O)C23)OCO4)cc(OC)c1O (stereo partly specified) | CP238 | class 1
CC[C@@H]1OC(=O)[C@H](C)[C@H](O[C@@H]2C[C@](C)(OC)[C@H](O)[C@H](C)O2)[C@H](C)[C@H](O[C@@H]2O[C@@H](C)C[C@@H](N(C)C)[C@@H]2O)[C@](C)(O)C[C@H](C)C(=NOCOCCOC)[C@H](C)[C@H](O)[C@]1(C)O | CP238 | class 0
COc1cc2nc(N3CCN(C(=O)[C@@H]4CCCO4)CC3)nc(N)c2cc1OC | CP238 | class 0

Input line: How was COc1ccccc1OC[C@H](O)CO classified in this test?
Output line: class 0

Input line: GET /call?item= OCC1O[C@H](OC2C(CO)O[C@@](O)(CO)C2O)C(O)C(O)C1O (stereo partly specified) returns the recorded outcome of this test.
Output line: class 0

Input line: Record request — test call for O=C(O)[C@@H]1CCCN1
Output line: class 0

Input line: Give the logged outcome of this assay for the following molecule: CC(=O)N[C@@H]1C(O)OC(CO)C(O)C1O (stereo partly specified)
Output line: class 0

Input line: Could you please tell me the result logged for CC[C@@]12CCCN3CCc4c(n(c5ccccc45)[C@](O)(C(=O)OC)C1)C32 (stereo partly specified) in this assay?
Output line: class 0

Input line: What classification did C[C@@]12CCC(=O)C=C1C=CC1C2CC[C@]2(C)C1CC[C@@]21CCC(=O)O1 (stereo partly specified) end up with in this test?
Output line: class 0

Just for reference, PubChem BioAssay (NCATS) is where these values come from.
